Reference source for all entries: patent US20080261994A1

Would you mind telling me the reported IC50 of each entry?
# TARGET_ENTITY: Recombinant Human MMP-13 (Homo sapiens)
# Construct: purchased R&D systems 511-MM
# ASSAY: MMP-13 inhibitory activity (MMP-13 specific fluorescent substrate with quencher)
# Format: biochemical
# STATED_CONDITIONS: Recombinant Human MMP-13, fluorescent substrate, 25° C. for 1 h; read-out: IC50 MMP13 (Experimental Example 3)

[ask] # IC50 lookup, item O=C(O)C1(NS(=O)(=O)c2ccc3c(c2)Cc2cc(Br)ccc2-3)CC1c1ccccc1 (stereo not shown)
[reply] < 1000 nM

[ask] Another compound to look at: O=C(O)Cc1cccc(C2CC2(NS(=O)(=O)c2ccc(-c3ccc(Cl)cc3)s2)C(=O)O)c1 (stereo not shown)
[reply] < 100 nM

[ask] Another compound to look at: O=C(O)[C@]1(NS(=O)(=O)c2ccc3c(c2)CN(C2CCCCC2)C3)C[C@@H]1c1ccccc1
[reply] ≥ 10000 nM

[ask] Another compound to look at: O=C(O)[C@]1(NS(=O)(=O)c2ccc(-c3cc(C(F)F)on3)cc2)C[C@@H]1c1ccccc1
[reply] < 100 nM

----------
# TARGET_ENTITY: aggrecanase-1 (Homo sapiens, UniProt O75173)
# Sequence (O75173 213-837, species assumed): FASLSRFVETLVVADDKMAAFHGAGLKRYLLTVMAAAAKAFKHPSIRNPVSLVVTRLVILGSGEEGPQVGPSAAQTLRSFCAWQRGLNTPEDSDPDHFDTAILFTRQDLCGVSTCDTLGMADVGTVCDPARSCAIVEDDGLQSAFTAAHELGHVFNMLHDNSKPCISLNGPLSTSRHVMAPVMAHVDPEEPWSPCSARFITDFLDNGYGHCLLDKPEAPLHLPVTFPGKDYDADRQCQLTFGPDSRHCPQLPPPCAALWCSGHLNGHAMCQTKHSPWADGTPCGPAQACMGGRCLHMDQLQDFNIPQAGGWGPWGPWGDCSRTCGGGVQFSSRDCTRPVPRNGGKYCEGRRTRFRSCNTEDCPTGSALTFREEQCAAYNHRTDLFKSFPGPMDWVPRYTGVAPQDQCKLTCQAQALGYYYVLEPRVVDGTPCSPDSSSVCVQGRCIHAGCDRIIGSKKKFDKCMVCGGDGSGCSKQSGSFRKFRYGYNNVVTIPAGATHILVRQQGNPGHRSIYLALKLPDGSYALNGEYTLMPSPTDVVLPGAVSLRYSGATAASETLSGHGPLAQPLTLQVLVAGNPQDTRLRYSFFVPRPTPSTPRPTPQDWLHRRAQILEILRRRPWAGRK
# ASSAY: Aggrecanase-1 inhibitory action (Particle Assay, GAG release from aggrecan-containing polyacrylamide particles)
# Format: biochemical
# STATED_CONDITIONS: aggrecanase-1 inhibitory action; read-out: IC50 AG1 (Experimental Example 1)
pIC50: −log10 of the molar value.
EXPERIMENTAL_READOUT: pIC50

[ask] # pIC50 lookup, item CN1CCN(C(=O)c2cccc(C3CC3(NS(=O)(=O)c3ccc(-c4ccc(Cl)cc4)s3)C(=O)O)c2)CC1 (stereo not shown) [Example 2-200]
[reply] > 6.00

[ask] Another compound to look at: O=C(O)C1(NS(=O)(=O)c2ccc(-c3ccc(Cl)cc3)s2)CC1c1cccc([N+](=O)[O-])c1 (stereo not shown) [Example 1-127]
[reply] > 7.00

[ask] Another compound to look at: O=C(O)[C@]1(NS(=O)(=O)c2ccc(C3=NOC(O)(C(F)(F)F)C3)s2)C[C@@H]1c1ccccc1 (stereo partly shown) [Example 2-35]
[reply] > 6.00

[ask] Another compound to look at: CN(Cc1cccnc1)c1cccc(C2CC2(NS(=O)(=O)c2ccc(-c3cc(C(F)(F)F)on3)s2)C(=O)O)c1 (stereo not shown) [Example 2-214]
[reply] > 7.00

[ask] Another compound to look at: CC(F)(F)c1cc(-c2ccc(S(=O)(=O)N[C@@]3(C(=O)O)C[C@@H]3c3ccccc3)s2)no1 [Example 2-84]
[reply] > 7.00

[ask] Another compound to look at: O=C(O)[C@]1(NS(=O)(=O)/C=C/c2ccccc2)C[C@@H]1c1ccccc1 [Example 2-140]
[reply] ≤ 5.00

[ask] Another compound to look at: O=C(O)C1(NS(=O)(=O)c2ccc(-c3ccc(Cl)cc3)s2)CC1c1ccccc1OCCO (stereo not shown) [Example 1-138]
[reply] > 7.00

----------
# TARGET_ENTITY: MMP-1 (Homo sapiens, UniProt P03956)
# Sequence (P03956 100-469, species assumed): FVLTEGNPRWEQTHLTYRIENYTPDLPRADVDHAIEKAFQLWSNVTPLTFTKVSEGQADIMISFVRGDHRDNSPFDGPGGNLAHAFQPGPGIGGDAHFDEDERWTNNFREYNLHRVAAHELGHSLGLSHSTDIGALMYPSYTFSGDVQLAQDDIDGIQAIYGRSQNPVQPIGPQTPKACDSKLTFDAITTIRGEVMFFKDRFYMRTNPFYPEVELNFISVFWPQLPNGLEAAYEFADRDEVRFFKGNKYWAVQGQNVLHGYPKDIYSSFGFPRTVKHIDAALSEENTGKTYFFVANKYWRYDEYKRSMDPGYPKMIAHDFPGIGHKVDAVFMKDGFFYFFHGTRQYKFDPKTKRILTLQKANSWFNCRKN
# ASSAY: MMP-1 inhibitory action (Type I collagen Activity Measurement kit, FITC-labeled collagen type I)
# Type: biochemical
# STATED_CONDITIONS: Experimental Example 2; read-out: IC50 MMP1
pIC50: −log10 of the molar value.
Would you mind telling me the reported pIC50 of each entry?

[ask] # pIC50 lookup, item C[C@]1(c2ccccc2)C[C@@]1(NS(=O)(=O)c1ccc(-c2ncc(Br)cn2)s1)C(=O)O
[reply] ≤ 6.00

[ask] Another compound to look at: O=C(NO)C1(NS(=O)(=O)c2ccc(OCc3ccc(Cl)cc3Cl)cc2)C2CCc3ccccc3C21 (stereo not drawn)
[reply] ≤ 5.00

[ask] Another compound to look at: NCc1ccc([C@@H]2C[C@]2(NS(=O)(=O)c2ccc(-c3cc(C(F)(F)F)on3)s2)C(=O)O)cc1
[reply] ≤ 6.00

[ask] Another compound to look at: CC1[C@H](c2ccccc2)[C@]1(NS(=O)(=O)N1CCC(Oc2ccc(Cl)cc2)C1)C(=O)O (stereo partly drawn)
[reply] ≤ 6.00

[ask] Another compound to look at: Cc1cc(-c2ccc(S(=O)(=O)NC3(C(=O)O)C4CCCc5ccccc5C43)s2)no1 (stereo not drawn)
[reply] > 6.00

[ask] Another compound to look at: CC1[C@H](c2ccccc2)[C@]1(NS(=O)(=O)c1ccc(-c2cc(C(C)(F)F)on2)s1)C(=O)O (stereo partly drawn)
[reply] > 7.00

[ask] Another compound to look at: CC1[C@H](c2ccccc2)[C@]1(NS(=O)(=O)N1CCN(c2nc3ccccc3o2)CC1)C(=O)O (stereo partly drawn)
[reply] ≤ 5.00

[ask] Another compound to look at: COCCOCC1(c2ccccc2)CC1(NS(=O)(=O)c1ccc(-c2ccc(Cl)cc2)s1)C(=O)O (stereo not drawn)
[reply] ≤ 6.00

[ask] Another compound to look at: CC1[C@H](c2ccccc2)[C@]1(NS(=O)(=O)c1ccc(-c2cc(C(F)F)no2)s1)C(=O)O (stereo partly drawn)
[reply] ≤ 6.00

[ask] Another compound to look at: CC(C)CCN1CCN(S(=O)(=O)N[C@@]2(C(=O)O)C[C@@H]2c2ccccc2)CC1
[reply] ≤ 6.00

[ask] Another compound to look at: CN1CCN(C(=O)CCc2ccc([C@H]3C[C@@]3(NS(=O)(=O)c3ccc(-c4cc(C(F)(F)F)on4)s3)C(=O)O)cc2)CC1
[reply] ≤ 5.00

[ask] Another compound to look at: COCc1cn2cc(S(=O)(=O)N[C@@]3(C(=O)O)C[C@]3(C)c3ccccc3)sc2n1
[reply] ≤ 6.00

[ask] Another compound to look at: Cc1cc(N2CCN(S(=O)(=O)N[C@@]3(C(=O)O)C(C)[C@@H]3c3ccccc3)CC2)no1 (stereo partly drawn)
[reply] ≤ 5.00

[ask] Another compound to look at: CC1[C@H](c2ccccc2)[C@]1(NS(=O)(=O)c1ccc(-n2cc(Br)cn2)s1)C(=O)O (stereo partly drawn)
[reply] > 7.00

[ask] Another compound to look at: C[C@]1(c2ccccc2)C[C@@]1(NS(=O)(=O)c1ccc(-c2cc(C(F)F)on2)s1)C(=O)O
[reply] > 6.00

----------
# TARGET_ENTITY: Recombinant Human MMP-13 (Homo sapiens)
# Construct: purchased R&D systems 511-MM
# ASSAY: MMP-13 inhibitory activity (MMP-13 specific fluorescent substrate with quencher)
# Assay type: biochemical
# STATED_CONDITIONS: Experimental Example 3; read-out: IC50 MMP13
EXPERIMENTAL_READOUT: IC50

[ask] # IC50 lookup, item CC1[C@H](c2ccccc2)[C@]1(NS(=O)(=O)c1ccc(-n2cc(C#N)cn2)s1)C(=O)O (stereo partly shown) [Example 2-580]
[reply] < 0.1 µM

[ask] Another compound to look at: C[C@]1(c2ccccc2)C[C@@]1(NS(=O)(=O)c1ccc(/C=C\C(F)(F)F)s1)C(=O)O [Example 2-563]
[reply] ≥ 1 µM

[ask] Another compound to look at: CC1[C@H](c2ccccc2)[C@]1(NS(=O)(=O)c1ccc(-c2ccc(Cl)cn2)s1)C(=O)O (stereo partly shown) [Example 2-366]
[reply] < 0.1 µM

[ask] Another compound to look at: O=C1OCC2C(c3ccccc3)C12NS(=O)(=O)c1ccc(-c2cc(C(F)(F)F)on2)s1 (stereo not shown) [Example 2-312]
[reply] ≥ 10 µM

----------
Would you mind telling me the reported IC50 of each entry?
# TARGET_ENTITY: Recombinant Human MMP-13 (Homo sapiens)
# Construct: purchased R&D systems 511-MM
# ASSAY: MMP-13 inhibitory activity (MMP-13 specific fluorescent substrate with quencher)
# Type: biochemical
# STATED_CONDITIONS: Experimental Example 3; read-out: IC50 MMP13

[ask] # IC50 lookup, item CC1[C@H](c2ccccc2)[C@]1(NS(=O)(=O)N1CCN(c2ccc(Cl)cc2)C(=O)C1)C(=O)O (stereo partly shown) [Example 2-502]
[reply] ≥ 1 µM

[ask] Another compound to look at: O=C(O)[C@]1(NS(=O)(=O)c2ccc(-n3cc(Br)cn3)s2)C[C@@H]1c1ccccc1 [Example 2-605]
[reply] ≥ 1 µM

[ask] Another compound to look at: CC1[C@H](c2ccccc2)[C@]1(NS(=O)(=O)N1CCN(c2ccc(C(F)(F)F)cc2)CC1)C(=O)O (stereo partly shown) [Example 2-428]
[reply] < 0.1 µM

[ask] Another compound to look at: O=C(O)CSCC1(c2ccccc2)CC1(NS(=O)(=O)c1ccc(-c2cc(C(F)(F)F)on2)s1)C(=O)O (stereo not shown) [Example 2-410]
[reply] ≥ 1 µM

[ask] Another compound to look at: CC1[C@H](c2ccccc2)[C@]1(NS(=O)(=O)N1CCN(c2nc3ccccc3o2)CC1)C(=O)O (stereo partly shown) [Example 2-464]
[reply] ≥ 1 µM

[ask] Another compound to look at: CC1C(c2ccccc2)C1(NS(=O)(=O)c1ccc(-c2cccc(CN3CCOCC3)c2)s1)C(=O)O (stereo not shown) [Example 2-540]
[reply] < 1 µM

[ask] Another compound to look at: O=C(OCC1(c2ccccc2)CC1(NS(=O)(=O)c1ccc(-c2cc(C(F)(F)F)on2)s1)C(=O)O)N1CCOCC1 (stereo not shown) [Example 2-306]
[reply] < 1 µM
